- Measured target: recombinant N-terminal MLH1 (residues 15-340) (Homo sapiens)
- Construct: recombinant N-terminal MLH1 (residues 15-340)
- Sequence (P40692 15-340): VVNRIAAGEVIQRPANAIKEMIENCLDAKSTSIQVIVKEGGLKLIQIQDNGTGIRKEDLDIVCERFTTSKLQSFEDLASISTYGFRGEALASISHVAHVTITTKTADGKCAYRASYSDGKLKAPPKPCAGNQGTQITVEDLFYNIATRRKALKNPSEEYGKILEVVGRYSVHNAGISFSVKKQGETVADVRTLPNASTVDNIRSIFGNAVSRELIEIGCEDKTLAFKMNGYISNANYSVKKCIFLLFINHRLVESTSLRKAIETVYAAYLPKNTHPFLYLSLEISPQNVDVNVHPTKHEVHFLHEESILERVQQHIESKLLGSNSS
- Test: Fluorescence Polarisation Assay for MLH1
- Test settings: 100 nM N-terminal MLH1, 5 nM probe compound
pIC50: −log10 of the molar value.
Observable: pIC50

Query string: Query (compound): CN(C)CCOc1cc2c(c(C(F)F)c1)CN(C(=O)c1c(O)cc(C(F)F)cc1OCc1ccccc1)CC2 [Example 4.74] ; field requested: pIC50
Result string: 6.00 to 7.00

Query string: Next compound up: CN(C)Cc1ccc2c(n1)CN(C(=O)c1c(O)cc(C(F)F)cc1OCc1ccccc1)C2 [Example 4.52]
Result string: 6.00 to 7.00

Query string: Next compound up: CN(C)CCOc1cc2c(c(N[C@H]3CCOC3)c1)CN(C(=O)c1c(O)cc(Cl)cc1OCc1ccccc1)C2 [Example 10]
Result string: > 7.00

Query string: Next compound up: COCCOc1ccc2c(c1)CN(C(=O)c1c(O)cc(C(F)F)cc1OCc1ccccc1)C2 [Example 4.77]
Result string: 6.00 to 7.00

Query string: Next compound up: CN1CC(Oc2ccc3c(c2)CCN(C(=O)c2c(O)cc(C(F)F)cc2OCc2ccccc2)C3)C1 [Example 4.66]
Result string: 6.00 to 7.00

Below is a list of compounds. For each, state its recorded pIC50.
1. O=C(c1c(O)cc(C(F)F)cc1OCc1ccccc1)N1CCc2cc(NC3CCOC3)ccc21 (stereo not drawn) [Example 27.5]
2. CN1CC[C@@H](Oc2ccc3c(c2)CCN(C(=O)c2c(O)cc(C(F)F)cc2OCc2ccccc2)C3)C1 [Example 4.65]
3. N#Cc1cc(O)c(C(=O)N2CCc3cccc(N[C@@H]4CCOC4)c3C2)c(OCc2ccccc2)c1 [Example 10.12]
4. CNc1cc(OCCN(C)C)cc2c1CN(C(=O)c1c(O)cc(C(F)F)cc1OCc1ccccc1)CC2 [Example 4.73]
5. N#Cc1cc(O)c(C(=O)N2Cc3cccc(Nc4cncnc4)c3C2)c(OCc2ccccc2)c1 [Example 10.4]
6. CN1CCC(Oc2ccc3c(c2)CCN(C(=O)c2c(O)cc(C#N)cc2OCc2ccccc2)CC3)CC1 [Example 27.6]
7. COCCNc1cccc2c1CN(C(=O)c1c(O)cc(C(F)F)cc1OCc1ccccc1)CC2 [Example 4.37]
8. CN(C)CCOc1cc2c(c(N[C@H]3CCOC3)c1)CN(C(=O)c1c(O)cc(C#N)cc1OCc1ccccc1)C2 [Example 19]

Result string:
1: 5.00 to 6.00; 2: 6.00 to 7.00; 3: 5.00 to 6.00; 4: 6.00 to 7.00; 5: 5.00 to 6.00; 6: 5.00 to 6.00; 7: 5.00 to 6.00; 8: 6.00 to 7.00

Below is a list of compounds. For each, state its recorded pIC50.
1. O=C(c1c(O)cc(C(F)F)cc1OCc1ccccc1)N1Cc2cc(Cn3ccnc3)cc(N[C@H]3CCOC3)c2C1 [Example 4.19]
2. O=C(c1c(O)cc(C(F)F)cc1OCc1ccccc1)N1CCc2ccc(NC3CCOC3)cc21 (single isomer, unassigned) [Example 27.2a]

Result string:
["6.00 to 7.00", "6.00 to 7.00"]
